All values here come from patent US20230242662A1.

measurementTarget: CD46 on Colo205 cells (human) (UniProt P15529)
methodDescription: FACS, Colo205 cells that express CD46, pH 6.0
Consider the following binders and their measured EC50 readings.
measureName: EC50 (µg/mL)

- BA-133-04-01 (antibody, V domains shown) VH: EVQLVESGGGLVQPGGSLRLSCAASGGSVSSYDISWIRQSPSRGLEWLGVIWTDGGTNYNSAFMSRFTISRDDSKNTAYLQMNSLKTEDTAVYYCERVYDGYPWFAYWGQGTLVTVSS VL: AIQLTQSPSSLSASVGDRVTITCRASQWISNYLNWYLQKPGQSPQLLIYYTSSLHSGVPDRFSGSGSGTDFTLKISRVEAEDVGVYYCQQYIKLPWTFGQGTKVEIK: 0.36
- BAP133-2-03-03-SL (antibody, V domains shown) VH: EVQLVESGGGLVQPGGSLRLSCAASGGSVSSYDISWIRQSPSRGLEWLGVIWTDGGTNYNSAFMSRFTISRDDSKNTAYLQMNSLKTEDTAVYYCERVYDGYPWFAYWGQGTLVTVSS VL: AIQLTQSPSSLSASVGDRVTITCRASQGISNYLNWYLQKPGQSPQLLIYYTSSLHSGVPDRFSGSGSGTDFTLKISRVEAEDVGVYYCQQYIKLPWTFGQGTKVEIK: 0.341
- BAP133-2-02-12 (antibody, V domains shown) VH: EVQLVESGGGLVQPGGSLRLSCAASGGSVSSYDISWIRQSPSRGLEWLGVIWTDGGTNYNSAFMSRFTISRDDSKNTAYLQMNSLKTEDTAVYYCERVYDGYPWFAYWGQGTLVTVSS VL: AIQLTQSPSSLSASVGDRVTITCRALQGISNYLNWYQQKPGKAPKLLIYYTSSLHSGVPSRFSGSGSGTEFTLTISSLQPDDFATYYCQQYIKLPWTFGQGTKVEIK: 0.704
- BA-133-04-04 (antibody, V domains shown) VH: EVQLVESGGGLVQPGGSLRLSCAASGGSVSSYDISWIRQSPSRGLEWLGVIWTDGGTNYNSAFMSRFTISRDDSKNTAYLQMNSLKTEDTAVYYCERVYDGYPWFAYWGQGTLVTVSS VL: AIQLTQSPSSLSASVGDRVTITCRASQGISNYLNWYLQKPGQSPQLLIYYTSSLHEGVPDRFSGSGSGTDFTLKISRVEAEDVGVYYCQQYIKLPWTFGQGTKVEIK: 0.246
- BA-133-04-03 (antibody, V domains shown) VH: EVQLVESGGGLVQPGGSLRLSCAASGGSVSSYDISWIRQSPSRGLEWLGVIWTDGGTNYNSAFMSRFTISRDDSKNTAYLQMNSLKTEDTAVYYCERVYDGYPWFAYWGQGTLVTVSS VL: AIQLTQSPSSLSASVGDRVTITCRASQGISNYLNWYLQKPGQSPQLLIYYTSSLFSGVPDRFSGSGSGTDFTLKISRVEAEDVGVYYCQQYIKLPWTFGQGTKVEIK: 0.151
- BA-133-04-02 (antibody, V domains shown) VH: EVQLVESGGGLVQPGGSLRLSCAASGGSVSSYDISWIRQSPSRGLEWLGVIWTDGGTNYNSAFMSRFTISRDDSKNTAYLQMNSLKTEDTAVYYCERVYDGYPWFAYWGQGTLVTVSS VL: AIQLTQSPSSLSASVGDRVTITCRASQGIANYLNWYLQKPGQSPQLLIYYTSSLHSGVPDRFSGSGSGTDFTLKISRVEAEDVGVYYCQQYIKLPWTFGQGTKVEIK: 0.371
- Benchmark (BM) BA-133-00-01 (antibody, V domains shown) VH: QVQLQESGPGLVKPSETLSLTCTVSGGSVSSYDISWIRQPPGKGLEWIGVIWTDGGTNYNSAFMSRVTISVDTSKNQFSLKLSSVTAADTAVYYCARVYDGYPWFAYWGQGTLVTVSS VL: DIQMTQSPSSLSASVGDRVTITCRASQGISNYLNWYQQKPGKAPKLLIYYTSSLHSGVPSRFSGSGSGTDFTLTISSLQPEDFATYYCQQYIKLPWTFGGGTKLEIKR: 0.201
